Origin of measurements: the DeepSol protein solubility set

# protocolText: soluble on expression in E. coli; label from the status in PepcDB or PDB records

constructSequence	soluble on expression in E. coli
MAKKIEKNIITGLDIGTSKIIALIGEVTSDGTIEIIGIGRHPSRGLKRGVVVDIETTVNSIQRAVQEAELMAGCEVRTVYAGIAGSHIRSLNSHGIVAIRDQEVSQADVERVIDAAKAVAIPADQ	not soluble
MMPTSTCGYPGMAEQSTVLYTAVGYMVGFVSLFNHTHSQDNFFHRGCYYGCDDDNMRFAFFSKAALEFLLRSNKKPDIIHCHDWQTGLIPIMLYEIYKYHGMEYQRVCYTIHNFKHQGMGGVGTLQATALNEASYYFQYNKLRDNFNPFALNLMKGGIIYSNAVTTVSPHHAVEAQTSE	not soluble
MGSDKIHHHHHHMENGEMIKVLLANPRGFCAGVDRAIEIVERALSVHGAPIYVRHEVVHNRFVVEDLEKKGAVFVENLDEVPAGSILIFSAHGVSHAVRREAEAGQFKVFDATCPLVTKVHIEVAKMRDQGREIIMIGHAGHPEVEGTMGQAEGDGPSMYLVETEEDVEKLQVQDPAHLAYVTQTTLSVDDANRVIQALKGRFPNILGPKKDDICYATQNRQDAVKTMVKQCDLVIVVGSPNSSNSNRLCEVARNAGVDAYMLDRAEQLQEAWLKGKMRIGITAGASAPEVLVQEVISRLRQIVSEQAEREVVVEELRGVVESVVFPLPRN	not soluble
